Numbers sourced from ChEMBL document CHEMBL1138480.

Experiment: Total clearance in Beagle dog at 0.10 mg/kg, iv by cassette assay
Format: ADME, organism-based, Canis lupus familiaris
Design: dose 0.1 mg/kg, route intravenous
Settings: in vivo, 0.1 mg/kg
hey, just use 1 (yes) if measured clearance is less than 8 mL/min/kg, otherwise 0 (no)

Here's what some known entries look like.
{"columns": ["mol", "answer.label"],
 "data": [
  ["CS(=O)(=O)NC(=O)c1ccc(-c2ccc(CCNC[C@H](O)c3ccccc3)cc2)cc1C1CCCC1.Cl", "1 (yes)"],
  ["CS(=O)(=O)NC(=O)c1ccc(-c2ccc(CCNC[C@H](O)c3ccc(N)cc3)cc2)cc1OC1CCCCC1.Cl.Cl", "1 (yes)"],
  ["CS(=O)(=O)NC(=O)c1ccc(-c2ccc(CCNC[C@H](O)c3cccnc3)cc2)cc1C1CCCC1.Cl.Cl", "0 (no)"]
]}

Please find the next compound below.
Inquiry: Identify whether the compound `CC(C)Cc1cc(-c2ccc(CCNC[C@H](O)c3cccnc3)cc2)ccc1C(=O)NS(C)(=O)=O.Cl.Cl` records clearance below 8 mL/min/kg.
Reply text: 0 (no)

###

Test: Cmax in monkey at 0.32 mg/kg, po by cassette assay
Type: ADME, organism-based, Macaca mulatta
Set-up: dose 0.32 mg/kg, route oral
Settings: rhesus monkey, in vivo
Consider the following compounds; for each one, report its Cmax.
Answers are plain numbers, in ng/mL.

Here's what some known entries look like.
{"columns": ["mol", "measurement.units", "Cmax"],
 "data": [
  ["CS(=O)(=O)NC(=O)c1ccc(-c2ccc(CCNC[C@H](O)c3cccnc3)cc2)cc1OC1CCCCC1.Cl.Cl", "ng/mL", 35.1],
  ["CC(C)Nc1cc(-c2ccc(CCNC[C@H](O)c3ccccc3)cc2)ccc1C(=O)NS(C)(=O)=O.Cl.Cl", "ng/mL", 2.7]
]}

Inquiry: What value of measured Cmax is listed for `CC(C)Sc1cc(-c2ccc(CCNC[C@H](O)c3ccccc3)cc2)ccc1C(=O)NS(C)(=O)=O.Cl` ?
Reply text: 15.7

###

Consider the following molecules; for each one, report its EC50.
Biological target: Beta-1 adrenergic receptor (Homo sapiens, UniProt P08588)
Sequence (P08588 whole entry): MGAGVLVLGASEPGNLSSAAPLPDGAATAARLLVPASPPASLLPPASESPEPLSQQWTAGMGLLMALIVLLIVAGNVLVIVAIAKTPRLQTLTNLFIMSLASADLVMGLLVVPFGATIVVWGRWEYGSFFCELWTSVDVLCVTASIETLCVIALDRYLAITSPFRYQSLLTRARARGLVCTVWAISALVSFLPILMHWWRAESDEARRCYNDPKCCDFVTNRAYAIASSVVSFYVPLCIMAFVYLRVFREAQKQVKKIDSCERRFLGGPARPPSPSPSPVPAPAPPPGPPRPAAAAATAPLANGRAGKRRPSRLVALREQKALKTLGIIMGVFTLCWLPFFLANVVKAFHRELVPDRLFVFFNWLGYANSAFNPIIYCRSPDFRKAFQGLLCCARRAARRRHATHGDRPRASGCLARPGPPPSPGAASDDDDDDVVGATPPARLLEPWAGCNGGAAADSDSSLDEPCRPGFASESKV
Answers are plain numbers, in nM.

Here's what some known entries look like.
{"columns": ["mol", "measurement.units", "EC50"],
 "data": [
  ["CS(=O)(=O)NC(=O)c1ccc(-c2ccc(CCNC[C@H](O)c3ccccc3)cc2)cc1OC1CCCC1", "nM", 750],
  ["COc1cc(-c2ccc(CCNC[C@H](O)c3ccccc3)cc2)ccc1C(=O)NS(C)(=O)=O", "nM", 730],
  ["CS(=O)(=O)NC(=O)c1ccc(-c2ccc(CCNC[C@H](O)c3ccccc3)cc2)cc1CC1CCCCC1.Cl", "nM", 370],
  ["CS(=O)(=O)NC(=O)c1ccc(-c2ccc(CCNC[C@H](O)c3ccccc3)cc2)cc1SC1CCCCC1.Cl", "nM", 840]
]}

// each molecule listed below needs its EC50
1. CC(C)Nc1cc(-c2ccc(CCNC[C@H](O)c3ccccc3)cc2)ccc1C(=O)NS(C)(=O)=O.Cl.Cl
2. CCCCCOc1cc(-c2ccc(CCNC[C@H](O)c3ccccc3)cc2)ccc1C(=O)NS(C)(=O)=O

Reply text:
1: 260; 2: 160

// each molecule listed below needs its EC50
1. CS(=O)(=O)NC(=O)c1ccc(-c2ccc(CCNC[C@H](O)c3cccnc3)cc2)cc1OC1CCCCC1.Cl.Cl
2. CS(=O)(=O)NC(=O)c1ccc(-c2ccc(CCNC[C@H](O)c3ccccc3)cc2)cc1OC1CCCCCC1
3. CC(C)Nc1cc(-c2ccc(CCNC[C@H](O)c3cccnc3)cc2)ccc1C(=O)NS(C)(=O)=O.Cl.Cl.Cl
4. CC(C)Sc1cc(-c2ccc(CCNC[C@H](O)c3cccnc3)cc2)ccc1C(=O)NS(C)(=O)=O.Cl.Cl
5. CC(C)Cc1cc(-c2ccc(CCNC[C@H](O)c3cccnc3)cc2)ccc1C(=O)NS(C)(=O)=O.Cl.Cl

Reply text:
800
220
320
240
490
